- EXPERIMENTAL SYSTEM: human alpha 7-wt nAChR (Homo sapiens, UniProt P36544)
- Construct: expressed in transfected cells
- Sequence (P36544 23-502): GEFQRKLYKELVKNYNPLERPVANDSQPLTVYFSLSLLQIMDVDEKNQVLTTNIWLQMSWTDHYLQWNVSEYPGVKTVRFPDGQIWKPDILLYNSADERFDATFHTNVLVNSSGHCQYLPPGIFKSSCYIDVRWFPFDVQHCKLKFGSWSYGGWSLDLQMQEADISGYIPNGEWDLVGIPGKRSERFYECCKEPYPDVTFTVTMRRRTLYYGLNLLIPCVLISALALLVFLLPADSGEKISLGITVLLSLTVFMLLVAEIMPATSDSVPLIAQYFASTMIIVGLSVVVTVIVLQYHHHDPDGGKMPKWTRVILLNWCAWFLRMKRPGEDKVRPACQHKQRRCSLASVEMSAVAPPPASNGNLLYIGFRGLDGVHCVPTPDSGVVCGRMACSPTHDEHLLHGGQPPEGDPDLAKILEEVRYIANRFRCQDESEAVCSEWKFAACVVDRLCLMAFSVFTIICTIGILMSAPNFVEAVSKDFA
- PROTOCOL DESCRIPTION: Ca2+ flux imaging (FDSS) (Protocol B)
- Type: cell-based
- MEASUREMENT SETUP: potentiation of 100 μM choline; compounds 0.01 μM to 30 μM; read-out: a7-PAM-G_[33]_pEC50 pEC50 (converted)
- Protocol: Ca^2+ Flux Imaging (FDSS) (Protocol B) […] PAM activity was detected in real time by applying the compounds to be tested to the loaded cells along with an alpha 7 nicotinic receptor agonist during constant monitoring of cellular fluorescence in a FDSS. […] A control response to choline was calculated on each plate from the difference in peak in fluorescence in wells receiving either choline or assay buffer alone. […]
PARAMETER: EC50 (nM)

Look over these answered cases.
• Cc1ccc(-c2sc(N3C[C@@H](C)O[C@@H](C)C3)nc2CNC(=O)CC2CC2)cn1 = 4270
• Cc1cc(-c2sc(N3C[C@@H](C)O[C@@H](C)C3)nc2CNC(=O)c2cc(C)n(C(C)(C)C)n2)cc(C)n1 = 617
• Cc1cc(-c2sc(N3C[C@@H](C)O[C@@H](C)C3)nc2CNC(=O)C2CCC2)ccn1 = 631
• COc1cc(-c2sc(N3C[C@@H](C)O[C@@H](C)C3)nc2CNC(=O)C2CCC2)cc(C)n1 = 102

a: Cc1cc(-c2sc(N3C[C@@H](C)O[C@@H](C)C3)nc2CNC(=O)[C@H]2CCOC2)cc(C)n1
b: Cc1cc(-c2sc(N3CCO[C@@H](C(F)(F)F)C3)nc2CNC(=O)CC2CC2)cc(C)n1
c: COc1cc(-c2sc(N3C[C@@H](C)O[C@@H](C)C3)nc2CNC(=O)CC2CC2)cc(C)n1
Exam item: list the entries in increasing order of EC50. Form field (ranking): labels in requested order.
b, c, a
(b: 74.1 nM, c: 145 nM, a: 447 nM)

###

- EXPERIMENTAL SYSTEM: human alpha 7-wt nAChR-expressing GH4C1 cells (Homo sapiens)
- Construct: expressed in transfected cells
- PROTOCOL DESCRIPTION: Patch-clamp current recording (whole-cell voltage-clamp, PAM type classification)
- Assay type: cell-based
- Set-up: key: Type 0 compounds minimally change the effect size of the current elicited by 1 mM choline.; Type 1 compounds enhance the effect size of the current elicited by 1 mM choline but minimally alter the kinetics of the receptor.; Type 2 compounds enhance the effect size of the current elicited by 1 mM choline while reducing the rate and/or the extent of desensitization.; Type 3 compounds enhance the effect size of the current elicited by 1 mM choline. When tested at higher concentrations up to 10 μM they completely inhibit desensitization; Type 4 compounds allow for an initial desensitization of the receptor followed by a re-opening of the receptor during agonist application
- MEASUREMENT SETUP: 1 mM choline
Listing of recorded PAM_Type PAM type by entry.
Output: the number by itself.

Look over these answered cases.
• Cc1cc(-c2sc(N3CCOC(C)(C)C3)nc2CNC(=O)c2ccc(F)cc2C)cc(C)n1 = 2
• Cc1cc(-c2sc(N3CC4CCC(C3)O4)nc2CNC(=O)CC2CC2)cc(C)n1 = 0
• Cc1cc(-c2sc(N3C[C@@H](C)O[C@@H](C)C3)nc2CNC(=O)c2c(C)noc2C)cc(C)n1 = 0
• Cc1cc(-c2sc(N3CCOC(C(F)(F)F)C3)nc2CNC(=O)c2cc(C)on2)cc(C)n1 (stereo not drawn) = 0
• C[C@@H]1CN(c2nc(CNC(=O)CC3CC3)c(-c3ccnc(C(F)(F)F)c3)s2)C[C@H](C)O1 = 1
• Cc1cc(-c2sc(N3CCO[C@@H](C(F)(F)F)C3)nc2CNC(=O)CC2CC2)cc(C)n1 = 2
• Cc1cc(-c2sc(N3CCOC(C)C3)nc2CNC(=O)C(C)C)cc(C)n1 (single isomer, unassigned) [Compound 71] = 2
• Cc1cc(-c2sc(N3C[C@@H](C)O[C@@H](C)C3)nc2CNC(=O)c2oncc2C)cc(C)n1 = 0
• Cc1cc(-c2sc(N3C[C@@H](C)O[C@@H](C)C3)nc2CNC(=O)C2CC2)cc(C)n1 = 2
• Cc1cc(-c2sc(N3C[C@@H](C)O[C@@H](C)C3)nc2CNC(=O)c2cccnc2C)cc(C)n1 = 2

So what's the measured PAM_Type PAM type for this one? Cc1nocc1C(=O)NCc1nc(N2C[C@@H](C)O[C@@H](C)C2)sc1-c1ccnc(C(F)(F)F)c1
1

What about this compound? COc1cc(-c2sc(N3C[C@@H](C)O[C@@H](C)C3)nc2CNC(=O)c2conc2C)cc(C)n1
2

What about this compound? Cc1cc(-c2sc(N3CCOC(C(F)(F)F)C3)nc2CNC(=O)c2ccc(F)cc2C)cc(C)n1 (stereo not drawn)
4

What about this compound? Cc1cc(-c2sc(N3C[C@@H](C)O[C@@H](C)C3)nc2CNC(=O)c2cccc(Cl)c2)cc(C)n1
2

What about this compound? Cc1cc(-c2sc(N3C[C@@H](C)O[C@@H](C)C3)nc2CNC(=O)CC2CC2)ccn1
2

What about this compound? Cc1cc(-c2sc(N3C[C@@H](C)O[C@@H](C)C3)nc2CNC(=O)C2CCC2)cc(C)n1
2
